assay-system: Aspartate--tRNA(Asp/Asn) ligase (Mycobacterium tuberculosis (strain ATCC 25618 / H37Rv)); note: in the data most compounds retested in dose-response had high values
protocol-details: Assay for Asp RNA synthetase-1 from Mycobacterium tuberculosis
Assay type: functional
Set-up: scale not given: direction of the effect not stated beside the values
protocol-conditions: 30 µM
The entries below are paired with their reported Percent Effect.
Answer in %, number only, no unit symbol.

{"compound": "Cc1ccc(CNC(=O)NCc2csc(C)n2)cn1", "readout-unit": "%", "readout-value": -3.34}

Supply recorded Percent Effect for O=C(NCC(F)(F)F)NC1CCCc2c1cnn2CCO (configuration not stated) here. -1.62

Supply recorded Percent Effect for CCOCC1CN(S(C)(=O)=O)Cc2cnn(CC3CCOCC3)c21 (configuration not stated) here. 5.17

---

assay-system: Shiga toxin 2 (Escherichia coli O157:H7) (UniProt P09385+P09386)
protocol-details: E. coli 0.157:H7 Shiga Toxin SOP - stx2 screening assay
Format: functional
Parameters: scale not given: direction of the effect not stated beside the values
protocol-conditions: 30 µM
The entries below are paired with their reported Percent Effect.
Answer in %, number only, no unit symbol.

{"molecule": "CNC(=O)C1CCC(NC(=O)N(C)Cc2c(C)noc2C)CC1 (stereo unspecified)", "measured-metric": "Percent Effect", "readout-value": 14.3}
{"molecule": "CN(C)CC1CSCCCN1C(=O)Nc1ccc(C(C)(C)C)cc1 (stereo unspecified)", "measured-metric": "Percent Effect", "readout-value": 11.6}
{"molecule": "CC1CN(C(=O)CN(Cc2ccccc2Br)C2CC2)CCO1 (stereo unspecified)", "measured-metric": "Percent Effect", "readout-value": 29.2}

With Shiga toxin 2 (Escherichia coli O157:H7) (UniProt P09385+P09386) as the test system, provide measured Percent Effect for this molecule: CCS(=O)(=O)CCN1CCC(N(C)Cc2noc(C(C)C)n2)C1 (stereo unspecified) -10.7

With Shiga toxin 2 (Escherichia coli O157:H7) (UniProt P09385+P09386) as the test system, provide measured Percent Effect for this molecule: CCc1ccc(NC(=O)c2cnc(N3CCN(C)CC3)nc2C)cc1 -28

With Shiga toxin 2 (Escherichia coli O157:H7) (UniProt P09385+P09386) as the test system, provide measured Percent Effect for this molecule: O=C(c1cc(C2CC2)on1)N1CCCC(n2cncn2)C1 (stereo unspecified) -16.7

With Shiga toxin 2 (Escherichia coli O157:H7) (UniProt P09385+P09386) as the test system, provide measured Percent Effect for this molecule: NCC1(c2cccc(Br)c2)CCOCC1 -23.5

With Shiga toxin 2 (Escherichia coli O157:H7) (UniProt P09385+P09386) as the test system, provide measured Percent Effect for this molecule: Cc1nccn1C1CCCN(C(=O)c2ccc(N(C)C)nc2)C1 (stereo unspecified) 26

With Shiga toxin 2 (Escherichia coli O157:H7) (UniProt P09385+P09386) as the test system, provide measured Percent Effect for this molecule: CN(C)C(=O)N1CCN(CCn2nc3ccccn3c2=O)CC1 -19.4

With Shiga toxin 2 (Escherichia coli O157:H7) (UniProt P09385+P09386) as the test system, provide measured Percent Effect for this molecule: CS(=O)(=O)c1ccc(C(O)CN2CCC(c3ccn[nH]3)CC2)cc1 (stereo unspecified) -3.06

With Shiga toxin 2 (Escherichia coli O157:H7) (UniProt P09385+P09386) as the test system, provide measured Percent Effect for this molecule: O=S(=O)(C1CC1)N1CCO[C@H]2[C@H](OCCN3CCCC3)CC[C@@H]21 -32.7

---

The entries below are paired with their reported Percent Effect.
assay-system: Shiga toxin 2 (Escherichia coli O157:H7) (UniProt P09385+P09386)
protocol-details: E. coli 0.157:H7 Shiga Toxin SOP - stx2 screening assay
Assay type: functional
Design: scale not given: direction of the effect not stated beside the values
protocol-conditions: 30 µM
Answer in %, number only, no unit symbol.

{"molecule": "Cc1nc(CCCNC(=O)C2CC(=O)N(C3CC3)C2)sc1C (configuration not stated)", "Percent Effect (%)": -28.3}
{"molecule": "CC(O)CN1CCN(C(=O)c2cccn2Cc2ccncc2)CC1 (configuration not stated)", "Percent Effect (%)": 13.7}
{"molecule": "CCN(CCc1ccccc1)Cn1nc(C)c2c(C)onc2c1=O", "Percent Effect (%)": 16}

Supply recorded Percent Effect for Cc1cccc(C(=O)N2CCC(Cc3cnc4[nH]ccc4c3)CC2)n1 here. 5.08

Supply recorded Percent Effect for CC(C)(C)c1ncc(C(=O)NCCNC(=O)c2ccccc2)s1 here. 36.9

Supply recorded Percent Effect for CC(C)c1nc(C2CCCN2CC(=O)N2CCc3ccccc32)no1 (configuration not stated) here. 10.6

---

The entries below are paired with their reported Percent Effect.
assay-system: Aspartate--tRNA(Asp/Asn) ligase (Mycobacterium tuberculosis (strain ATCC 25618 / H37Rv)) (UniProt P9WFW3); note: in the data most compounds retested in dose-response had high values
Sequence (P9WFW3 whole entry): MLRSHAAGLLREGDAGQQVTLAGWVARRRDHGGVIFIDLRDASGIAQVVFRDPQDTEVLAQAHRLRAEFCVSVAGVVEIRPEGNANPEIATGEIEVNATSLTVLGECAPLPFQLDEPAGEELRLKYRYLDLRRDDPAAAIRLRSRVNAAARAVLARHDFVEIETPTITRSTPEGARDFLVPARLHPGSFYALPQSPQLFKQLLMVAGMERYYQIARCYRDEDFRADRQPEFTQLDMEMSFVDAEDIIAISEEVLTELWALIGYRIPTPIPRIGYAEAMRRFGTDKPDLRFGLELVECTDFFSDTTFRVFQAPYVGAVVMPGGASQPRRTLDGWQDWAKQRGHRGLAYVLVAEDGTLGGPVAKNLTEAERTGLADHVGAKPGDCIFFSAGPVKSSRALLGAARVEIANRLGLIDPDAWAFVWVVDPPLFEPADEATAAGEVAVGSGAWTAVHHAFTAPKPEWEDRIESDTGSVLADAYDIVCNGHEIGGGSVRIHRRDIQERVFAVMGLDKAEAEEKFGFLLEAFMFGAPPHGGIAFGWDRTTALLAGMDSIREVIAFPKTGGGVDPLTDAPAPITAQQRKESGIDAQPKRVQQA
protocol-details: Assay for Asp RNA synthetase-1 from Mycobacterium tuberculosis
Assay type: functional
Design: scale not given: direction of the effect not stated beside the values
protocol-conditions: 30 µM
Answer in %, number only, no unit symbol.

{"compound": "Cc1[nH]ncc1CCCNC(=O)Nc1ccc(C#N)cc1", "measured-metric": "Percent Effect", "readout-value": 0.993}
{"compound": "NC(=O)CN1CCCN(C(=O)c2ccn(-c3cccc(F)c3)n2)CC1", "measured-metric": "Percent Effect", "readout-value": 5.51}
{"compound": "Cc1nc(CN(C)C2CCN(CCCOc3ccccc3)C2)no1 (configuration not stated)", "measured-metric": "Percent Effect", "readout-value": 2.8}
{"compound": "Cc1nnc2n1CCN(C(=O)c1cc(Cl)c(Cl)n1C)C2", "measured-metric": "Percent Effect", "readout-value": -1.68}
{"compound": "O=c1oc(-c2cccs2)nn1CC(O)c1ccccc1 (configuration not stated)", "measured-metric": "Percent Effect", "readout-value": 1.71}

Supply recorded Percent Effect for CN(CCCNc1cc(N2CCCC2CO)ncn1)S(C)(=O)=O (configuration not stated) here. 7.01

Supply recorded Percent Effect for Cc1cnc(CN(Cc2ccccc2)CC(O)c2cccs2)cn1 (configuration not stated) here. -1.43

Supply recorded Percent Effect for COc1ccccc1Oc1ncccc1CNC(=O)C(C)N1CCCC1 (configuration not stated) here. -0.0279

---

The entries below are paired with their reported Percent Effect.
assay-system: Aspartate--tRNA(Asp/Asn) ligase (Mycobacterium tuberculosis (strain ATCC 25618 / H37Rv)) (UniProt P9WFW3); note: in the data most compounds retested in dose-response had high values
protocol-details: Assay for Asp RNA synthetase-1 from Mycobacterium tuberculosis
Assay type: functional
Design: scale not given: direction of the effect not stated beside the values
protocol-conditions: 30 µM
Answer in %, number only, no unit symbol.

{"molecule": "Cc1ccc2c(c1)C1(CC2)CCN(c2nncs2)CC1", "readout-unit": "%", "readout-value": 1.71}
{"molecule": "Cc1nc(C)n(CC2CCCN2CC(=O)Nc2ccnn2C(C)C)n1 (stereo unspecified)", "readout-unit": "%", "readout-value": -1.15}
{"molecule": "CCOCC(=O)N1C[C@@H](NC(C)=O)[C@H](c2ccc(OC)cc2)C1", "readout-unit": "%", "readout-value": -0.287}
{"molecule": "CN1CCN(c2ncc3c(=O)n(-c4cccc(F)c4)c(=O)[nH]c3n2)CC1", "readout-unit": "%", "readout-value": 11.2}
{"molecule": "Cc1cc(NC(=O)Cn2cc(C#N)c(=O)c3cc(Br)ccc32)no1", "readout-unit": "%", "readout-value": -2.42}
{"molecule": "CCOC(C)c1nc(CN2CCNCC2)cs1 (stereo unspecified)", "readout-unit": "%", "readout-value": -2.26}
{"molecule": "CCc1noc(CNc2ccc(F)cc2OCC2CC2)n1", "readout-unit": "%", "readout-value": 1.97}
{"molecule": "CC(C)CN1CCCn2nc(CNC(=O)CCCc3cn[nH]c3)cc2C1", "readout-unit": "%", "readout-value": -0.885}
{"molecule": "Cc1cnn(CCC(=O)N2CCC(Nc3cccnn3)CC2)c1", "readout-unit": "%", "readout-value": 1.38}
{"molecule": "Cc1cnc(CNC(=O)NCc2cccnc2N(C)C)s1", "readout-unit": "%", "readout-value": -2.25}

Supply recorded Percent Effect for Cc1cccnc1C(=O)N1CCCC(c2[nH]ncc2S(C)(=O)=O)C1 (stereo unspecified) here. 3.25

---

assay-system: Shiga toxin 2 (Escherichia coli O157:H7) (UniProt P09385+P09386)
protocol-details: E. coli 0.157:H7 Shiga Toxin SOP - stx2 screening assay
Assay type: functional
Set-up: scale not given: direction of the effect not stated beside the values
protocol-conditions: 30 µM
measured-metric: Percent Effect (%)
Answer in %, number only, no unit symbol.

Before answering, review these 5 worked examples.
{"compound": "CCCc1cc(C(=O)N(C)Cc2cccc3ncccc23)n(C)n1", "Percent Effect [%]": -12.5}
{"compound": "CN1CCC(Oc2ccc(NC(=O)c3cccc(Cl)c3)cc2)CC1", "Percent Effect [%]": -51}
{"compound": "Cc1ccc(NC2CCN(C(=O)c3cccc4ncccc34)CC2)nn1", "Percent Effect [%]": -2.02}
{"compound": "CCS(=O)(=O)N(C)c1ccc(C(=O)N2CCCC(C)C2)cc1 (stereo not drawn)", "Percent Effect [%]": -3.21}
{"compound": "Cc1nc(N2CCN(C(=O)C3CC3)CC2)c2c(n1)c(C)nn2C", "Percent Effect [%]": -35.4}

Supply recorded Percent Effect for COCCOc1cccc(C(=O)N2CCCC(n3cccn3)C2)c1 (stereo not drawn) here. -14.5

Supply recorded Percent Effect for NC(=O)c1ccc(OCC(=O)N2CCCC(n3cccn3)C2)cc1 (stereo not drawn) here. 26

Supply recorded Percent Effect for O=C(N1CCCO1)[C@@]12CCO[C@@H]1CCN(Cc1ccccc1)C2 here. -5.88

Supply recorded Percent Effect for Cc1nc(NCCc2ccc(Cl)cc2)cc(C(=O)N2CCCCC2)n1 here. -69.6

Supply recorded Percent Effect for Cc1nn(C)c(C)c1C1CCCN1CC(=O)Nc1ccncc1 (stereo not drawn) here. 11.1
